These measurements were taken from ChEMBL document CHEMBL2331542.

tested on: Escherichia coli; assay: Antibacterial activity against Escherichia coli isolate 12-1; format: functional
MIC values, listed per item
MEASURED ATTRIBUTE: MIC (mg/L)

>>> df
                                   molecule  result_number
0  CCO/N=C1\CN(c2nc3c(cc2F)c(=O)c(C(=O)O)cn3C2CC2)CCC1NC (configuration not stated)             32
1  CNC1CCN(c2c(F)cc3c(=O)c(C(=O)O)cn(C4CC4)c3c2OC)C/C1=N\OC (configuration not stated)              4
2  CNC1CCN(c2nc3c(cc2F)c(=O)c(C(=O)O)cn3-c2ccc(F)cc2F)C/C1=N\OC (configuration not stated)              8
3  CNC1CCN(c2nc3c(cc2F)c(=O)c(C(=O)O)cn3C2CC2)C/C1=N\OC (configuration not stated)              4
4  CCO/N=C1\CN(c2c(F)cc3c(=O)c(C(=O)O)cn4c3c2OC[C@@H]4C)CCC1NC (some centres not stated)              4
5  CO/N=C1\CN(c2c(F)cc3c(=O)c(C(=O)O)cn(C4CC4)c3c2OC)CCC1N (configuration not stated)              2
6  CNC1CCN(c2c(F)cc3c(=O)c(C(=O)O)cn(C4CC4)c3c2F)C/C1=N\OC (configuration not stated)              2
